Data origin: the Human Domainome abundance scans (Beltran et al. 2025)

B1: POU domain, class 2, transcription factor 2, residues 200 to 269; numbered along this chain, P09086 (parent)
chain: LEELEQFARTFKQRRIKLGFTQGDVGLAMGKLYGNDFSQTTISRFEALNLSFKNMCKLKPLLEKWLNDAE

# Variants of: B1
# ASSAY_SUMMARY: abundance fitness (aPCA) (normalised: wild type 0, dead -1); higher = more abundant; growth selection in yeast, the domain comes from the species named
# ASSAY_CONDITIONS: Homo sapiens
MEASURED_QUANTITY: abundance fitness
// return a plain number; no unit text

L4I    0.012
K64E    -0.016
I42F    -0.375
W65Y    -0.128
L50P    -0.674
L27S    -0.073
K31V    -0.115
T21S    -0.044
Q22T    -0.045
R44F    -0.22

Problem: Input P60E , output reported abundance fitness.
Result: -0.109

Problem: Input Q22C , output reported abundance fitness.
Result: -0.004
